Hey, just so you know, these numbers are from patent US20090012085A1.

- assay_protocol: Phase I dose-escalating study, plasma pharmacokinetics in patients with solid tumor
- Type: in vivo, human
- assay_context: human, plasma, 250 mg, 250 mg QD 4/1 (n = 6), nominal time 2 h; read-out: Mean plasma concentration following the last dose on cycle 1 day 28
measured_metric: concentration at 2 h (ng/mL)
Express your answer in ng/mL, writing the number without its unit.

# concentration at 2 h lookup, item Cc1[nH]c(/C=C2\C(=O)Nc3ccc(F)cc32)c(C)c1C(=O)NC[C@H](O)CN1CCOCC1 177

* * *

- assay_protocol: Phase I dose-escalating study, plasma pharmacokinetics in patients with solid tumor
- Type: in vivo, human
- assay_context: human, plasma, 25 mg, 25 mg QD (4/1), C1D28 (n = 6), plasma; read-out: AUC(0-24), mean (% CV)
measured_metric: AUC(0-t)

# AUC(0-t) lookup, item Cc1[nH]c(/C=C2\C(=O)Nc3ccc(F)cc32)c(C)c1C(=O)NC[C@H](O)CN1CCOCC1 [compound 1] 809 ng·h/mL
